System: NCI-H1048 cells
Assay: MTT proliferation assay, NCI-H1048;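 note: Dose-response in 96-well plates over 8 or 10 concentration points, with exposure spanning 3-4 cell doublings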
Type: cell-based
Settings: 5 days compound exposure, 1:3 serial dilution starting at 10 μM
*1 amine or outer side, *2 acyl side, *3 side chain or, on linkers, in order; H or OH if unused. Where a SMILES comes first, the peptide text is derived from it. Bridges are numbered along the chain shown (N, C = ends). [ ]: non-standard residue; d: D form. The star is where a group is joined. X107 = CN([C@@H](Cc1cc(Cl)ccc1-c1ccc(-c2cnn(C)c2)cc1)C(=O)[*:2])[*:1]; NMehhhLys(Me) = CN([C@@H](CCCCCCCN(C)[*:3])C(=O)[*:2])[*:1]; X154 = Cc1oncc1-c1ccc(Cl)cc1C[C@@H](C(=O)[*:2])N(C)[*:1]; cBuCO(3,3-F2-1-CF3) = O=C(C1(C(F)(F)F)CC(F)(F)C1)*; Pro(trans-4-F) = O=C(O)[C@@H]1C[C@@H](F)CN1; Gly(cPr) = N[C@H](C(=O)O)C1CC1

COMPOUND | TESTED_SYSTEM | GI50 [nM]
CC(C)C[C@@H]1NC(=O)[C@@H](N(C)C(=O)[C@@H](NC(=O)[C@@H]2C[C@@H](F)CN2C(=O)C2(C(F)(F)F)CC(F)(F)C2)C2CC2)CCCCCCCN(C)C(=O)[C@H](Cc2cc(Cl)ccc2-c2ccc(-c3cnn(C)c3)cc2)N(C)C1=O [Example 338] ({cBuCO(3,3-F2-1-CF3)}-[Pro(trans-4-F)][Gly(cPr)][NMehhhLys(Me)]L[X107]; lactam 3-C) | NCI-H1048 cells | 20
Cc1oncc1-c1ccc(Cl)cc1C[C@H]1C(=O)N(C)CCCCCCC[C@H](N(C)C(=O)[C@@H](NC(=O)[C@@H]2C[C@@H](F)CN2C(=O)C2(C(F)(F)F)CC(F)(F)C2)C2CC2)C(=O)N[C@@H](CC(C)C)C(=O)N1C [Example 212] ({cBuCO(3,3-F2-1-CF3)}-[Pro(trans-4-F)][Gly(cPr)][NMehhhLys(Me)]L[X154]; lactam 3-C) | NCI-H1048 cells | 80
COCn1cc(-c2ccc(Cl)cc2C[C@H]2C(=O)N(C)CCCCC=CC[C@H](N(C)C(=O)[C@@H](NC(=O)[C@@H]3C[C@@H](F)CN3C(=O)C3(C(F)(F)F)CCC3)C3CC3)C(=O)N[C@@H](CC(C)C)C(=O)N2C)cn1 [Example 80] | NCI-H1048 cells | 30
